# run-parameters: in water, 283.15 K
measure-name: solubility (mole fraction)
// no unit, no text: just the number

Exercise: Which measured solubility (mole fraction) value corresponds to NC(N)=NCCC[C@H](NC(=O)OCc1ccccc1)C(=O)O ?
Key: 0.000198

* * *

# run-parameters: in ethyl acetate, 293.15 K
measure-name: solubility (mole fraction)
Give your answer as a number; write no unit.

Exercise: Need solubility (mole fraction) of NC(N)=NCCC[C@H](NC(=O)OCc1ccccc1)C(=O)O , thanks.
Key: 6.24e-05

* * *

# run-parameters: in ethanol, 323.15 K
measure-name: solubility (mole fraction)
Answer with the value's number alone.

Exercise: Sample NC(N)=NCCC[C@H](NC(=O)OCc1ccccc1)C(=O)O — what was its solubility (mole fraction)?
Key: 0.000898
